test target: T1, CEACAM1-HIS (Sino Biologics Inc.) (Homo sapiens (Human), UniProt P13688 35-428)
T1 construct: bought; not shown: His tag
T1 sequence: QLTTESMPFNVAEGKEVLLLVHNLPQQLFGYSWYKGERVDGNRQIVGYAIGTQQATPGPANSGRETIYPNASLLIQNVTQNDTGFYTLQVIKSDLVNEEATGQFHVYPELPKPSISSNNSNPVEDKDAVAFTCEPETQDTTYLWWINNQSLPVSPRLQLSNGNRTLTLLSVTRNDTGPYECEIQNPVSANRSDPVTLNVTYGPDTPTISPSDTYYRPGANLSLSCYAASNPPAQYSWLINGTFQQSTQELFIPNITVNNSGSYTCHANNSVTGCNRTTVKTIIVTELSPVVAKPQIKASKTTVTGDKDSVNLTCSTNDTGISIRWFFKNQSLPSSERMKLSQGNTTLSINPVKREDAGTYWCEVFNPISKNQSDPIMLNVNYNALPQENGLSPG
protocol text: SPR multi-cycle, IgG on Protein A
Here, each record is paired with measured kon data.
attribute measured: kon (M⁻¹ s⁻¹)

[
  {
    "binder": "VH1/Vκ1 (antibody, V domains shown) VH: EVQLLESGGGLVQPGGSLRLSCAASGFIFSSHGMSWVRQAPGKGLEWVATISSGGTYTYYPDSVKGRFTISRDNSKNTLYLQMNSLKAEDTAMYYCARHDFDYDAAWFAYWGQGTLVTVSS VL: QIVLTQSPALLSLSPGERATMSCSANSSVSYMYWYRQKPGQAPKPWIYLTSNLASGVPARFSGSGSGTDYTLTISSLEAEDFATYYCQQWSSNPPTFGQGTKLEIK",
    "unit": "M⁻¹ s⁻¹",
    "data value": 101000
  },
  {
    "binder": "VH2/Vκ1 (antibody, V domains shown) VH: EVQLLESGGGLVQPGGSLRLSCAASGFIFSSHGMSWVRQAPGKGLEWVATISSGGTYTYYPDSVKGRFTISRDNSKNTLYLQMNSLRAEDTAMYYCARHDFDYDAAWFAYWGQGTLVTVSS VL: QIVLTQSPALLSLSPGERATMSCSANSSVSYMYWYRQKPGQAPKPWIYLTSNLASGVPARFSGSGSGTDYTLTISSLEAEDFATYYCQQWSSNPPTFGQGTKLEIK",
    "unit": "M⁻¹ s⁻¹",
    "data value": 156000
  },
  {
    "binder": "VH1/Vκ2 (antibody, V domains shown) VH: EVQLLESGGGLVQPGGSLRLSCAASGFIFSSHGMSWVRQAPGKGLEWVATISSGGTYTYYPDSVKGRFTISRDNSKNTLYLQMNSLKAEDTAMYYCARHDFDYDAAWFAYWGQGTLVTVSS VL: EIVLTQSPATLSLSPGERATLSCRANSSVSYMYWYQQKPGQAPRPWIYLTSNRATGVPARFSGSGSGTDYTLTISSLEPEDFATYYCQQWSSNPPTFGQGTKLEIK",
    "unit": "M⁻¹ s⁻¹",
    "data value": 195000
  },
  {
    "binder": "VH2/Vκ2 (antibody, V domains shown) VH: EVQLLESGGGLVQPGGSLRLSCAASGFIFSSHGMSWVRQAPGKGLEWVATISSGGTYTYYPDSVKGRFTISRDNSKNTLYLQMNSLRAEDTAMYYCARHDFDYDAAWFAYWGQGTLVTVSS VL: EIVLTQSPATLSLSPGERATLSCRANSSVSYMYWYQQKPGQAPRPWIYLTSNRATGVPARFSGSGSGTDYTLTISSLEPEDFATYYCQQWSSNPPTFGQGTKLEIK",
    "unit": "M⁻¹ s⁻¹",
    "data value": 179000
  }
]
